Assay notes: Human HepG2 cell viability assay in 384 well format
Assay type: toxicity, cell-based
Parameters: dose 125 nL, time 70.5 hour; concentration not given beside the values
Test settings: HepG2 cells, read-out: Inhibition
Listed here: items and their measured cytotoxicity at 70.5 h.

Molecule	Value units	cytotoxicity at 70.5 h
CCNC(=O)NC1CN(Cc2ccncc2Cl)C[C@@H]1OC (stereo partly specified)	%	28.4
COCC(O)CN1CCC(=O)N(Cc2ccccc2)Cc2ccccc21 (stereo unspecified)	%	-5.42
COc1ccc(CN2CCOC[C@H](OCc3ccccc3)C2)cc1	%	-8.76
COc1ccnc(CN2CC(=O)N(c3ccc(C)cc3)CC2C)c1OC (stereo unspecified)	%	16.8
Cc1cnn(CC2CCCN2C(=O)c2cc3ccccc3c(=O)[nH]2)c1 (stereo unspecified)	%	-12.3
Cc1nccn1-c1ccc(C(C)NCCC(C)C)cc1 (stereo unspecified)	%	-1.85
